Data provenance is patent US9090632B2.

biological target: human mGluR5 (Homo sapiens); experiment: Cell-based functional Ca2+ mobilization assay, potentiation of glutamate EC20 response (H10H cell-line); details: H10H cell-line expressing recombinant human mGluR5; in presence of glutamate EC20; normalized to maximal glutamate response
readout_type: Emax (%)
// units = %; emit number, no label

Please review the following examples before continuing.
Cn1ccc(Cl)c1C(=O)N1CCc2nc(COc3ccccc3)oc2C1
45
O=C(c1c[nH]c2ccccc12)N1CCc2nc(COc3ccccc3)oc2C1
69
COCC(=O)N1CCc2nc(COc3ccccc3)oc2C1
27

Documented Emax (%) of O=C(c1ccc(Cl)o1)N1CCc2nc(COc3ccccc3)oc2C1 : 57

Documented Emax (%) of O=C(c1cccnc1)N1CCc2nc(COc3ccccc3)oc2C1 : 69

Documented Emax (%) of O=C(c1ccc(F)cc1)N1CCc2nc(COc3cncc(F)c3)oc2C1 : 62

Documented Emax (%) of O=C(N1CCc2nc(COc3ccccc3)oc2C1)C1(c2ccccc2)CC1 : 62

Documented Emax (%) of N#Cc1cc(F)cc(C(=O)N2CCc3nc(COc4cccc(F)c4)oc3C2)c1 : 52

Documented Emax (%) of COc1ccc(C(=O)N2CCc3nc(COc4ccccc4)oc3C2)s1 : 66

---

target: human mGluR5 (Homo sapiens); test: Cell-based functional Ca2+ mobilization assay, potentiation of glutamate EC20 response (H10H cell-line); conditions: H10H cell-line expressing recombinant human mGluR5; in presence of glutamate EC20; normalized to maximal glutamate response
Lab note: anything with Emax at or over 60% counts as Fulfilled; the rest go in Not fulfilled.

As a guide, the following entries are already answered.
N#Cc1cc(C(=O)N2CCc3nc(COc4cccc(F)c4)oc3C2)ccc1F
Fulfilled
N#Cc1cc(C(=O)N2CCc3nc(COc4ccccc4)oc3C2)ccc1F
Fulfilled
O=C(c1c[nH]c2cccnc12)N1CCc2nc(COc3ccccc3)oc2C1
Not fulfilled
Cc1nc(C(=O)N2CCc3nc(COc4ccccc4)oc3C2)no1
Not fulfilled

Ask: Check this compound for Emax at or above 60%: Cc1cccc(OCc2nc3c(o2)CN(C(=O)c2ccc(F)cc2)CC3)c1
Reply: Fulfilled

---

biological target: human mGluR5 (Homo sapiens, UniProt P41594); experiment: Cell-based functional Ca2+ mobilization assay, potentiation of glutamate EC20 response (H10H cell-line); details: H10H cell-line expressing recombinant human mGluR5; in presence of glutamate EC20; normalized to maximal glutamate response
Sequence (P41594 21-1180 isoform P41594-2 limits assumed): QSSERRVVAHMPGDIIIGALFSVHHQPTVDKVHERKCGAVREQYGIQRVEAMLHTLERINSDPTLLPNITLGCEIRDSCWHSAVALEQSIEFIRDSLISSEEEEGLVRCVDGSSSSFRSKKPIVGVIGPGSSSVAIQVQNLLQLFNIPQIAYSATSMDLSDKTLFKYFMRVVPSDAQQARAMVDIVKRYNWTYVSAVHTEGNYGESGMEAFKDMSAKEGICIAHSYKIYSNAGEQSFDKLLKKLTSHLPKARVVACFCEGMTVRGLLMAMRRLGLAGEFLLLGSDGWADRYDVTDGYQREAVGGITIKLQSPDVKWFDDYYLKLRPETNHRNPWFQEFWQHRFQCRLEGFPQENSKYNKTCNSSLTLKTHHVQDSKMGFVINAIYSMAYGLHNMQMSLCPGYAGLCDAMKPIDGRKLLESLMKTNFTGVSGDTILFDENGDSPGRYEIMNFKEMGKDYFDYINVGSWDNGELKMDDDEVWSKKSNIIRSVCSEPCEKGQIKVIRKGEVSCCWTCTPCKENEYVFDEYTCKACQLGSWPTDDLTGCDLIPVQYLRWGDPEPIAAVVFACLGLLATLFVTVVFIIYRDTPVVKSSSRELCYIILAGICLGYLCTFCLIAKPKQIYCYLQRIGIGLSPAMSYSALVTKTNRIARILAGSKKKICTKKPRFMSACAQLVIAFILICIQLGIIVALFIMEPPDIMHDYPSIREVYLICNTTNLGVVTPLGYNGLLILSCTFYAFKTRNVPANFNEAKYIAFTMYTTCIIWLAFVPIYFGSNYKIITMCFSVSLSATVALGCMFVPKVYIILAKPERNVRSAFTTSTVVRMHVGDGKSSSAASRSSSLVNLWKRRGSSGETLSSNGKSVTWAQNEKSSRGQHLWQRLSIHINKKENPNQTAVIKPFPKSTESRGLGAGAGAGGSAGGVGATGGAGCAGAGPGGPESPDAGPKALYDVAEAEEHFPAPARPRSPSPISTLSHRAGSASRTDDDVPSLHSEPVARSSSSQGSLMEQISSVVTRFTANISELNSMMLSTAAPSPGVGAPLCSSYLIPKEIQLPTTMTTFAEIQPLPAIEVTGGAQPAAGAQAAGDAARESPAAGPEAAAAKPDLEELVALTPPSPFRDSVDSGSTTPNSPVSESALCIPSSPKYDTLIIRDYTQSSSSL
readout_type: Emax (%)
// units = %; emit number, no label

Please review the following examples before continuing.
O=C(c1ncc(F)cc1F)N1CCc2nc(COc3ccccc3)oc2C1
60
O=C(c1cc2ccccc2o1)N1CCc2nc(COc3ccccc3)oc2C1
67
O=C(c1cncc(F)c1)N1CCc2nc(COc3cccc(F)c3)oc2C1
49
O=C(c1ccc2c(c1)OCO2)N1CCc2nc(COc3ccccc3)oc2C1
75
O=C(c1ccccc1F)N1CCc2nc(COc3ccccc3)oc2C1
68

# Emax measured on human mGluR5 (Homo sapiens, UniProt P41594) for item O=C(C1CC1)N1CCc2nc(COc3ccccc3)oc2C1 = 39

# Emax measured on human mGluR5 (Homo sapiens, UniProt P41594) for item O=C(c1ccc(F)cc1)N1CCc2nc(COc3cnccn3)oc2C1 = 36

# Emax measured on human mGluR5 (Homo sapiens, UniProt P41594) for item O=C(c1ccc(OC(F)(F)F)cc1)N1CCc2nc(COc3ccccc3)oc2C1 = 70

# Emax measured on human mGluR5 (Homo sapiens, UniProt P41594) for item O=C(Cc1ccc(F)cc1)N1CCc2nc(COc3ccccc3)oc2C1 = 61

# Emax measured on human mGluR5 (Homo sapiens, UniProt P41594) for item N#Cc1cccc(OCc2nc3c(o2)CN(C(=O)c2ccc(F)cc2)CC3)c1 = 66.5

# Emax measured on human mGluR5 (Homo sapiens, UniProt P41594) for item O=C(c1cnn2ccccc12)N1CCc2nc(COc3ccccc3)oc2C1 = 64

# Emax measured on human mGluR5 (Homo sapiens, UniProt P41594) for item O=C(c1ccccc1)N1CCc2nc(COc3cccc(F)c3)oc2C1 = 80

# Emax measured on human mGluR5 (Homo sapiens, UniProt P41594) for item O=C(c1cnco1)N1CCc2nc(COc3ccccc3)oc2C1 = 40.5

# Emax measured on human mGluR5 (Homo sapiens, UniProt P41594) for item Cc1ccc(C(=O)N2CCc3nc(COc4ccccc4)oc3C2)cn1 = 49

# Emax measured on human mGluR5 (Homo sapiens, UniProt P41594) for item O=C(c1ncccc1Cl)N1CCc2nc(COc3ccccc3)oc2C1 = 57

# Emax measured on human mGluR5 (Homo sapiens, UniProt P41594) for item O=C(c1ccc(F)cc1)N1CCc2nc(/C=C/c3ccccc3)oc2C1 = 48

# Emax measured on human mGluR5 (Homo sapiens, UniProt P41594) for item O=C(c1ncc[nH]1)N1CCc2nc(COc3ccccc3)oc2C1 = 32

# Emax measured on human mGluR5 (Homo sapiens, UniProt P41594) for item O=C(c1ccc(F)cc1)N1CCc2nc(COc3cccc(F)c3)oc2C1 = 74

# Emax measured on human mGluR5 (Homo sapiens, UniProt P41594) for item O=C(c1ccc(Cl)s1)N1CCc2nc(COc3ccccc3)oc2C1 = 73.5

---

Examples of molecules with documented Emax follow.
Target: UniProtKB P41594
Test: Cell-based functional Ca2+ mobilization assay, potentiation of glutamate EC20 response (H10H cell-line)
Details: H10H cell-line expressing recombinant human mGluR5; in presence of glutamate EC20; normalized to maximal glutamate response
Experimental: Human embryonic kidney (HEK) cells transfected with rat mGluR5 were plated in clear bottom assay plates for assay in a Functional Drug Screening System (FDSS). In the alternative assay, HEK cells transfected with human mGluR5 were plated for assay in the FDSS. […] After establishment of a fluorescence baseline for about three seconds, the compounds of the present invention were added to the cells, and the response in cells was measured. […]
// units = %; emit number, no label

Please review the following examples before continuing.
Cc1ccc(C(=O)N2CCc3nc(COc4ccccc4)oc3C2)o1 [Example B61]
52.5
Cc1ccnc(OCc2nc3c(o2)CN(C(=O)c2ccc(F)cc2)CC3)c1 [Example B33]
69
O=C(c1ccc(F)cc1)N1CCc2nc(COc3ccccc3)oc2CC1 [Example B4]
76
N#Cc1cccc(C(=O)N2CCc3nc(COc4cccc(F)c4)oc3C2)c1 [Example B85]
57

# context switch: different molecule, same Emax
Documented Emax of O=C(c1ccc2ccccc2n1)N1CCc2nc(COc3ccccc3)oc2C1 [Example B79] : 59

---

Examples of molecules with documented EC50 follow.
target: human mGluR5 (Homo sapiens); assay: Cell-based functional Ca2+ mobilization assay, potentiation of glutamate EC20 response (H10H cell-line); conditions: H10H cell-line expressing recombinant human mGluR5; potentiation in presence of glutamate EC20
// units = µM; emit number, no label

O=C(c1ncco1)N1CCc2nc(COc3ccccc3)oc2C1
2

Documented EC50 of Cc1ccnc(OCc2nc3c(o2)CN(C(=O)c2ccc(F)cc2)CC3)c1 : 2

---

target: human mGluR5 (Homo sapiens); assay: Cell-based functional Ca2+ mobilization assay, potentiation of glutamate EC20 response (H10H cell-line); conditions: H10H cell-line expressing recombinant human mGluR5; potentiation in presence of glutamate EC20
Lab note: anything with pEC50 at or over 6 counts as Y; the rest go in N.

O=C(c1ccc(S(F)(F)(F)(F)F)cc1)N1CCc2nc(COc3ccccc3)oc2C1
N
O=C(c1cc2ccccc2[nH]1)N1CCc2nc(COc3ccccc3)oc2C1
N

Ask: Check this compound for pEC50 at or above 6: O=C(c1ccc2nccnc2c1)N1CCc2nc(COc3ccccc3)oc2C1
Reply: N

Ask: Check this compound for pEC50 at or above 6: N#Cc1cc(F)cc(C(=O)N2CCc3nc(COc4cccc(F)c4)oc3C2)c1
Reply: Y

---

biological target: human mGluR5 (Homo sapiens); experiment: Cell-based functional Ca2+ mobilization assay, potentiation of glutamate EC20 response (H10H cell-line); conditions: H10H cell-line expressing recombinant human mGluR5; potentiation in presence of glutamate EC20
Values of EC50 strictly less than 2 µM map to TRUE, and values of at least 2 µM map to FALSE.

Ask: Consider O=C(c1ccc[nH]1)N1CCc2nc(COc3ccccc3)oc2C1 . Does its EC50 lie strictly below 2 µM?
Reply: TRUE

Ask: Consider Cc1nc(C(=O)N2CCc3nc(COc4ccccc4)oc3C2)c(C)o1 . Does its EC50 lie strictly below 2 µM?
Reply: FALSE

Ask: Consider COCc1ccc(C(=O)N2CCc3nc(COc4ccccc4)oc3C2)o1 . Does its EC50 lie strictly below 2 µM?
Reply: FALSE

Ask: Consider O=C(Cc1ccc(F)cc1)N1CCc2nc(COc3ccccc3)oc2C1 . Does its EC50 lie strictly below 2 µM?
Reply: TRUE

Ask: Consider O=C(c1ccc2[nH]cnc2c1)N1CCc2nc(COc3ccccc3)oc2C1 . Does its EC50 lie strictly below 2 µM?
Reply: FALSE

Ask: Consider O=C(c1cccc(F)c1)N1CCc2nc(COc3cccc(F)c3)oc2C1 . Does its EC50 lie strictly below 2 µM?
Reply: TRUE

Ask: Consider O=C(c1cncc(F)c1)N1CCc2nc(COc3cccc(F)c3)oc2C1 . Does its EC50 lie strictly below 2 µM?
Reply: FALSE

Ask: Consider N#Cc1ccc(C(=O)N2CCc3nc(COc4cccc(F)c4)oc3C2)cc1F . Does its EC50 lie strictly below 2 µM?
Reply: FALSE

Ask: Consider O=C(c1ccc(Cl)s1)N1CCc2nc(COc3ccccc3)oc2C1 . Does its EC50 lie strictly below 2 µM?
Reply: TRUE

Ask: Consider Cc1cccc(OCc2nc3c(o2)CN(C(=O)c2ccc(F)cc2)CC3)c1 . Does its EC50 lie strictly below 2 µM?
Reply: TRUE

Ask: Consider O=C(CC1CC1)N1CCc2nc(COc3ccccc3)oc2C1 . Does its EC50 lie strictly below 2 µM?
Reply: FALSE

Ask: Consider O=C(c1ccncc1)N1CCc2nc(COc3ccccc3)oc2C1 . Does its EC50 lie strictly below 2 µM?
Reply: FALSE

Ask: Consider N#Cc1cccc(C(=O)N2CCc3nc(COc4cccc(F)c4)oc3C2)c1 . Does its EC50 lie strictly below 2 µM?
Reply: TRUE

Ask: Consider O=C(COc1ccccc1)N1CCc2nc(COc3ccccc3)oc2C1 . Does its EC50 lie strictly below 2 µM?
Reply: TRUE

Ask: Consider CN(C)c1cccc(C(=O)N2CCc3nc(COc4ccccc4)oc3C2)c1 . Does its EC50 lie strictly below 2 µM?
Reply: TRUE

Ask: Consider O=C(c1cccnn1)N1CCc2nc(COc3ccccc3)oc2C1 . Does its EC50 lie strictly below 2 µM?
Reply: FALSE

Ask: Consider O=C(c1cnco1)N1CCc2nc(COc3ccccc3)oc2C1 . Does its EC50 lie strictly below 2 µM?
Reply: FALSE

Ask: Consider CC(C)(C#N)C(=O)N1CCc2nc(COc3ccccc3)oc2C1 . Does its EC50 lie strictly below 2 µM?
Reply: TRUE

Ask: Consider CC(C)(C)[C@H](N)C(=O)N1CCc2nc(COc3ccccc3)oc2C1 . Does its EC50 lie strictly below 2 µM?
Reply: FALSE
